# PROTOCOL SUMMARY: gradient 5% acetonitrile 3 min, to 50% in 2 min, to 85% in 15 min, held 3 min, 100 µL/min
# TEST CONTEXT: column: Zorbax Extend-C18 2.1 x 50 mm; eluents: water / acetonitrile, 0.1% formic acid
Items are presented alongside their recorded RP-LC retention time.
QUANTITY MEASURED: RP-LC retention time (s)

>>> recorded_result("CCOc1ccc(-c2noc(CN3C(=O)COc4ccc(C(C)(C)C)cc43)n2)cc1OC")
1230
>>> recorded_result("CCc1nc2cc(N3CCCC(C(=O)NC4CCCC4)C3)cnc2nc1CC (stereo unspecified)")
785
>>> recorded_result("COc1cccc(N2CCN(C(=O)Cc3csc4nc(-c5ccccc5)cn34)CC2)c1")
833
>>> recorded_result("COc1ccc(N2CCN(CCNC(=O)c3ccc(S(=O)(=O)N(C)C)cc3)CC2)cc1")
589
>>> recorded_result("Cc1csc(NC(=O)C2CCCN(c3ncnc4c3nc3n4CCCCC3)C2)n1 (stereo unspecified)")
756
>>> recorded_result("Cc1nnc(-c2coc(S(=O)(=O)N3CCN(C4CCCCC4)CC3)c2)o1")
615

---

# PROTOCOL SUMMARY: gradient 5% acetonitrile 3 min, to 50% in 2 min, to 85% in 15 min, held 3 min, 100 µL/min
# TEST CONTEXT: column: Zorbax Extend-C18 2.1 x 50 mm; eluents: water / acetonitrile, 0.1% formic acid
QUANTITY MEASURED: RP-LC retention time (s)

>>> recorded_result("Cn1c(=O)c(-c2noc(C(=O)N3CCN(c4ccccn4)CC3)n2)nn(-c2ccc(F)cc2)c1=O")
666
>>> recorded_result("CCCC(NC(=O)Cc1ccccc1F)C(=O)Nc1nc2ccccc2[nH]1 (stereo not drawn)")
694
>>> recorded_result("COc1ccc(NC(=O)N2CCN(c3nc4ccccc4n3C)CC2)c(OC)c1")
609
>>> recorded_result("COc1ccc(CN2CCN(C(=O)CCc3c(C)noc3C)CC2)cn1")
646
>>> recorded_result("CCC(C)C(NC(=O)c1cccc(N(C)C)c1)C(=O)Nc1nc2ccccc2[nH]1 (stereo not drawn)")
703
>>> recorded_result("CCOc1ccc(N2C=C(C(=O)OC)S(=O)(=O)c3ccc(Br)cc32)cc1")
1040
>>> recorded_result("CCN(CC)C(=O)N1CCCC(Cc2nncn2-c2ccccc2)C1 (stereo not drawn)")
628
>>> recorded_result("COc1ccc(CC(=O)N2CCCC2c2nc(-c3ccc(OC)c(OC)c3)no2)cc1OC (stereo not drawn)")
801

---

Let's look at some compounds and their measured RP-LC retention time.
# PROTOCOL SUMMARY: gradient 5% acetonitrile 3 min, to 50% in 2 min, to 85% in 15 min, held 3 min, 100 µL/min
# TEST CONTEXT: column: Zorbax Extend-C18 2.1 x 50 mm; eluents: water / acetonitrile, 0.1% formic acid
QUANTITY MEASURED: RP-LC retention time

>>> recorded_result("CCn1cnc2ccc(-c3noc(COc4ccc(Cl)cc4)n3)cc21")
"815 s"
>>> recorded_result("CC(C)Oc1ccc(CNC(=O)CCc2c(-c3ccc(Br)cc3)nc3ccccn23)cc1")
"744 s"
>>> recorded_result("COc1ccc(C(=O)N2CCCC2c2nc(-c3ccc(OC)c(OC)c3)no2)cc1 (stereo not drawn)")
"848 s"
>>> recorded_result("CCOC(=O)c1c(C)[nH]c(C(=O)N2CCCC(C(=O)NCCc3ccco3)C2)c1C (stereo not drawn)")
"781 s"
>>> recorded_result("CC(=O)N1CCCC(c2nc(CNC(=O)C(C)C)cs2)C1 (stereo not drawn)")
"609 s"
>>> recorded_result("CCC(=O)NCc1nc2c(n1C)CN(C(=O)c1cccc(Br)c1)CC2")
"591 s"
>>> recorded_result("CCn1ccc(NC(=O)c2ccccc2C)n1")
"720 s"
>>> recorded_result("COc1ccc(O)c(CNC2CCN(c3ccc(C(=O)NC4CC4)cn3)C2)c1 (stereo not drawn)")
"546 s"

---

# PROTOCOL SUMMARY: gradient 5% acetonitrile 3 min, to 50% in 2 min, to 85% in 15 min, held 3 min, 100 µL/min
# TEST CONTEXT: column: Zorbax Extend-C18 2.1 x 50 mm; eluents: water / acetonitrile, 0.1% formic acid
RP-LC retention time reference
QUANTITY MEASURED: RP-LC retention time

>>> recorded_result("CCC(=O)Nc1ccc2c(c1)CN(C(=O)c1cccc(Cl)c1)C(C(=O)N1CCCC1)C2 (centres undefined)")
"1070 s"
>>> recorded_result("O=c1c2cc(-c3cccs3)nn2cnn1Cc1nc(-c2ccc(F)cc2)no1")
"1040 s"
>>> recorded_result("CC(=O)c1cccc(NS(=O)(=O)c2ccc(-c3c(C)noc3C)cc2)c1")
"805 s"
>>> recorded_result("COc1cccc(C(=O)NC2CCN(c3ccc(F)cc3)C2=O)c1 (centres undefined)")
"756 s"
>>> recorded_result("COc1ccc(Cl)cc1NC(=O)C1(c2cccs2)CCCC1")
"1280 s"
>>> recorded_result("Cc1c(-c2ccc(-c3ccccc3F)cc2)nc2ccc(F)cc2c1C(=O)O")
"967 s"
>>> recorded_result("Cc1ccc(NC(=O)CSc2nnc3c4cc(-c5ccc(Cl)cc5)nn4ccn23)cc1F")
"1010 s"
>>> recorded_result("CC1(C(=O)NC2CCCCC2)CN(S(=O)(=O)c2ccccc2)CC(=O)N1c1ccccc1F (centres undefined)")
"932 s"
>>> recorded_result("Clc1ccc(Nc2nc(-c3ccncc3)nc3ccccc23)cc1")
"848 s"
>>> recorded_result("CCOc1ccc(NC(=O)N2CCC3(C2)C(=O)Nc2ccc(OC)cc23)cc1 (centres undefined)")
"731 s"
>>> recorded_result("COc1ccc(C(=O)N2CCN(c3nc(CN4CCOCC4)cs3)CC2)cn1")
"580 s"
>>> recorded_result("O=C(Cc1cccc(F)c1)N1CCC(Nc2ncnc3c2CCC3)C1 (centres undefined)")
"617 s"
>>> recorded_result("COc1cc(NC(=O)C2(C)CCCCC(=O)N2)cc(OC)c1 (centres undefined)")
"612 s"
>>> recorded_result("Cn1cc(C(=O)NCCc2ccccc2)c(S(=O)(=O)N2CCSCC2)n1")
"1030 s"

---

# PROTOCOL SUMMARY: gradient 5% acetonitrile 3 min, to 50% in 2 min, to 85% in 15 min, held 3 min, 100 µL/min
# TEST CONTEXT: column: Zorbax Extend-C18 2.1 x 50 mm; eluents: water / acetonitrile, 0.1% formic acid
# key: entry, value: RP-LC retention time
QUANTITY MEASURED: RP-LC retention time (s)

>>> recorded_result("COc1ccc(S(=O)(=O)N2CC3CN(C(=O)C4CCCO4)CC(C2)O3)cc1 (stereo not drawn)")
659
>>> recorded_result("COc1ccc(OC)c(NC(=O)CN2CC(C)Sc3ccccc32)c1 (stereo not drawn)")
1080
>>> recorded_result("CCN1C(=O)C(CC(=O)NCC(C)C)Sc2ncccc21 (stereo not drawn)")
689
>>> recorded_result("CCN(Cc1c(C)nn(CC)c1C)C(=O)Cn1nc2n(c1=O)CCC(N)CC2 (stereo not drawn)")
551
>>> recorded_result("O=C(Nc1ccsc1-c1nnc(C2CC2)o1)c1cccc(Br)c1")
1390
>>> recorded_result("Cc1cc(C)c(-c2noc(C)n2)c(NC(=O)c2cc(F)cc(F)c2)n1")
787
>>> recorded_result("CCN1CCN(C2CCN(C(=O)c3cc(C)cc(C)c3)CC2)C1=O")
728
>>> recorded_result("Cc1sc2ccn(Cc3ccc(F)cc3)c(=O)c2c1C(=O)NC1CCCCC1")
973

---

# PROTOCOL SUMMARY: gradient 5% acetonitrile 3 min, to 50% in 2 min, to 85% in 15 min, held 3 min, 100 µL/min
# TEST CONTEXT: column: Zorbax Extend-C18 2.1 x 50 mm; eluents: water / acetonitrile, 0.1% formic acid
QUANTITY MEASURED: RP-LC retention time (s)

>>> recorded_result("Cc1ccsc1C(=O)NCC(=O)N1CCCc2ccccc21")
832
>>> recorded_result("COCCN1C(=O)c2cccn2CC1CNC(=O)c1ccc(Cc2c(C)n[nH]c2C)o1 (stereo not given)")
594
>>> recorded_result("Cc1onc(-c2ccccc2Cl)c1C(=O)NCCn1nc(-c2ccccc2)n(C)c1=O")
708
>>> recorded_result("Cc1nc(-c2cc(S(=O)(=O)N3CCC(C(=O)NCCN4CCCCCC4)CC3)c(C)s2)no1")
666
>>> recorded_result("Cc1ccc2c(=O)c(C(=O)N3CCCC3)cn(CC(=O)NC3CCCCC3)c2n1")
676
>>> recorded_result("O=C(CS(=O)Cc1cnn(-c2ccccc2)c1-n1cccc1)NCc1cccc(F)c1 (stereo not given)")
838
>>> recorded_result("Cc1noc(C)c1CC(=O)N1CCC(Cc2noc(C3CC3)n2)C1 (stereo not given)")
748
>>> recorded_result("CC(C)S(=O)(=O)c1cc2c(cc1NC(=O)c1ccccc1Cl)n(C)c(=O)n2C")
824
>>> recorded_result("Cc1ccc(C)c(S(=O)(=O)N2CCC(F)(c3nc(CC(C)C)no3)CC2)c1")
1270
>>> recorded_result("Cc1cc(C)cc(Nc2c(C(=O)N3CCCCC3C)cnc3nc(C)ccc23)c1 (stereo not given)")
703
>>> recorded_result("CCc1ccc(N2C=C(C(=O)N3CCOCC3)S(=O)(=O)c3ccc(F)cc32)cc1")
873
>>> recorded_result("CCc1cc(C(=O)N2CCN(CC)CC2)nc2cc(-c3ccccn3)nn12")
580
>>> recorded_result("Cn1c(C2CCN(C(=O)Nc3cccc(C(F)(F)F)c3)CC2)cc(=O)n2nccc12")
717
>>> recorded_result("Cc1ccc(-c2cc3c(=O)n(CC(O)c4ccccc4)ccn3n2)c(C)c1 (stereo not given)")
982
>>> recorded_result("O=C(NCCCn1c(-c2ccncc2)nc2cccnc21)Nc1ccc(F)cc1F")
652

# credit: the METLIN SMRT retention time set (Domingo-Almenara et al. 2019)
